# Tested on: Mus musculus
# Test protocol: Thrombotic toxicity in ICR mouse assessed as tail bleeding time at 1.3 mmol/kg, ip after 15 mins
# Type: organism-based
# Experimental setup: in vivo, 0.25 h
Measure: Activity (s)
Give the value in s but do not write s after it.

Note to self: Activity recorded for CC1(C)N=C(c2ccc(Cl)c(Cl)c2)N(O)C1(C)C was 118

Note to self: Activity recorded for COc1ccc(C2=NC(C)(C)C(C)(C)N2O)cc1 was 118

Note to self: Activity recorded for CC1(C)N=C(c2ccc(Br)cc2)N(O)C1(C)C was 119

====

# Test protocol: Cardiovascular toxicity in rat aorta assessed as inhibition of noradrenaline-induced vasoconstriction at 5 mM relative to control
# Type: tissue-based
# Experimental setup: isolated rat aorta
Entry flag: met if inhibition at 5000 µM reaches 20%; not met if it does not.

Query :: Could you verify whether the entry CC1(C)N=C(c2cccc([N+](=O)[O-])c2)N(O)C1(C)C shows inhibition at 5000 µM of no less than 20%?
Result :: met

Query :: Could you verify whether the entry CC1(C)N=C(c2ccc(Cl)cc2)N(O)C1(C)C shows inhibition at 5000 µM of no less than 20%?
Result :: met

Query :: Could you verify whether the entry CC1(C)N=C(c2ccccc2F)N(O)C1(C)C shows inhibition at 5000 µM of no less than 20%?
Result :: met

Query :: Could you verify whether the entry CC1(C)N=C(c2ccccc2)N(O)C1(C)C shows inhibition at 5000 µM of no less than 20%?
Result :: met

Query :: Could you verify whether the entry Cc1ccc(C2=NC(C)(C)C(C)(C)N2O)cc1 shows inhibition at 5000 µM of no less than 20%?
Result :: not met

Just for reference, ChEMBL document CHEMBL1156678 is where these values come from.
